Recorded Mouse by entry
test: Plasma stability assay; format: in vitro ADME, mouse; settings: mouse, 10 μM
Numbered stars: 1 amine (or outer) side, 2 acyl side, 3 side chain; on linkers, the order of the positions; unused ones are H or OH. Bridge positions count the residues as written; N and C are the ends. Square brackets hold non-standard residues; d marks the D form. Peptide text beside a SMILES is read from it. * marks the point of attachment. Phe(3-CF3) = N[C@@H](Cc1cccc(C(F)(F)F)c1)C(=O)O; Piperazine(2S-CO,4-Me) = CN1CCN[C@H](C(=O)O)C1; Phe(3-Me) = Cc1cccc(C[C@H](N)C(=O)O)c1; NH(4-Cl-2-F-phenyl) = Fc1cc(Cl)ccc1N*; Pro(4R-Me) = C[C@H]1CN[C@H](C(=O)O)C1; CO = O=C([*:1])[*:2]
measuredParameter: Mouse (h)

compound="C[C@@H]1C[C@H]2C(=O)OC[C@H](NC(=O)[C@H](Cc3cccc(C(F)(F)F)c3)NC(=O)Nc3ccc(Cl)cc3F)C(=O)N3CCC[C@H]3C(=O)N3CCN(C)C[C@H]3C(=O)N[C@@H](C)C(=O)N2C1 [Compound 18] ({NH(4-Cl-2-F-phenyl)-CO}-[Phe(3-CF3)]SP[Piperazine(2S-CO,4-Me)]A[Pro(4R-Me)]; ester 2-C)" measuredparameter=Mouse reading=66.31
compound="Cc1cccc(C[C@H](NC(=O)Nc2ccc(Cl)cc2F)C(=O)N[C@H]2COC(=O)[C@@H]3C[C@@H](C)CN3C(=O)[C@H](C)NC(=O)[C@@H]3CN(C)CCN3C(=O)[C@@H]3CCCN3C2=O)c1 [Compound 13] ({NH(4-Cl-2-F-phenyl)-CO}-[Phe(3-Me)]SP[Piperazine(2S-CO,4-Me)]A[Pro(4R-Me)]; ester 2-C)" measuredparameter=Mouse reading=10.74

---

assay: Plasma stability assay; type: in vitro ADME, human; conditions: human, 10 μM
Numbered stars: 1 amine (or outer) side, 2 acyl side, 3 side chain; on linkers, the order of the positions; unused ones are H or OH. Bridge positions count the residues as written; N and C are the ends. Square brackets hold non-standard residues; d marks the D form. Peptide text beside a SMILES is read from it. * marks the point of attachment. Phe(3-CF3) = N[C@@H](Cc1cccc(C(F)(F)F)c1)C(=O)O; Piperazine(2S-CO,4-Me) = CN1CCN[C@H](C(=O)O)C1; Phe(3-Me) = Cc1cccc(C[C@H](N)C(=O)O)c1; NH(4-Cl-2-F-phenyl) = Fc1cc(Cl)ccc1N*; Pro(4R-Me) = C[C@H]1CN[C@H](C(=O)O)C1; NH(4-Et-phenyl) = CCc1ccc(N*)cc1; CO = O=C([*:1])[*:2]
measuredParameter: Human (h)

molecule="CCc1ccc(NC(=O)N[C@@H](Cc2cccc(C)c2)C(=O)N[C@H]2COC(=O)[C@@H]3C[C@@H](C)CN3C(=O)[C@H](C)NC(=O)[C@@H]3CN(C)CCN3C(=O)[C@@H]3CCCN3C2=O)cc1 [Compound 16] ({NH(4-Et-phenyl)-CO}-[Phe(3-Me)]SP[Piperazine(2S-CO,4-Me)]A[Pro(4R-Me)]; ester 2-C)" measuredparameter=Human readoutunits=h qualifiersymbol=> reading=50
molecule=Cc1cccc(C[C@H](NC(=O)Nc2ccc(Cl)cc2F)C(=O)N[C@H]2COC(=O)[C@@H]3C[C@@H](C)CN3C(=O)[C@H](C)NC(=O)[C@@H]3CCCCN3C(=O)[C@@H]3C[C@@H](O)CN3C2=O)c1 measuredparameter=Human readoutunits=h qualifiersymbol== reading=58.50
molecule="C[C@@H]1C[C@H]2C(=O)OC[C@H](NC(=O)[C@H](Cc3cccc(C(F)(F)F)c3)NC(=O)Nc3ccc(Cl)cc3F)C(=O)N3CCC[C@H]3C(=O)N3CCN(C)C[C@H]3C(=O)N[C@@H](C)C(=O)N2C1 [Compound 18] ({NH(4-Cl-2-F-phenyl)-CO}-[Phe(3-CF3)]SP[Piperazine(2S-CO,4-Me)]A[Pro(4R-Me)]; ester 2-C)" measuredparameter=Human readoutunits=h qualifiersymbol== reading=46.62
molecule=Cc1cccc(C[C@H](NC(=O)Nc2ccc(Cl)cc2F)C(=O)N[C@H]2COC(=O)[C@@H]3C[C@@H](C)CN3C(=O)[C@H](C)NC(=O)[C@@H]3CCCCN3C(=O)[C@@H]3C[C@H](N)CN3C2=O)c1 measuredparameter=Human readoutunits=h qualifiersymbol== reading=38.58

---

assay: Plasma pharmacokinetics; type: in vivo, male BALB/c mice; conditions: male, BALB/c, mouse, in vivo, iv
Numbered stars: 1 amine (or outer) side, 2 acyl side, 3 side chain; on linkers, the order of the positions; unused ones are H or OH. Bridge positions count the residues as written; N and C are the ends. Square brackets hold non-standard residues; d marks the D form. Peptide text beside a SMILES is read from it. * marks the point of attachment. Piperazine(2S-CO,4-Me) = CN1CCN[C@H](C(=O)O)C1; Morpholine(3S-CO) = O=C(O)[C@@H]1COCCN1; Phe(3-Me) = Cc1cccc(C[C@H](N)C(=O)O)c1; NH(4-Cl-2-F-phenyl) = Fc1cc(Cl)ccc1N*; Pro(4R-Me) = C[C@H]1CN[C@H](C(=O)O)C1; Hyp = O=C(O)[C@@H]1C[C@@H](O)CN1; NH(4-Et-phenyl) = CCc1ccc(N*)cc1; aThr = C[C@H](O)[C@H](N)C(=O)O; CO = O=C([*:1])[*:2]
Recorded AUC(0-t) by entry
measuredParameter: AUC(0-t) (ng·h/mL)

molecule="Cc1cccc(C[C@H](NC(=O)Nc2ccc(Cl)cc2F)C(=O)N[C@@H]2C(=O)N3CCC[C@H]3C(=O)N3CCN(C)C[C@H]3C(=O)N[C@@H](C)C(=O)N3C[C@H](C)C[C@H]3C(=O)O[C@H]2C)c1 [Compound 11] ({NH(4-Cl-2-F-phenyl)-CO}-[Phe(3-Me)][aThr]P[Piperazine(2S-CO,4-Me)]A[Pro(4R-Me)]; ester 2-C)" reading=5000
molecule="CCc1ccc(NC(=O)N[C@@H](Cc2cccc(C)c2)C(=O)N[C@@H]2C(=O)N3C[C@H](O)C[C@H]3C(=O)N3CCOC[C@H]3C(=O)N[C@@H](C)C(=O)N3C[C@H](C)C[C@H]3C(=O)O[C@H]2C)cc1 [Compound 24] ({NH(4-Et-phenyl)-CO}-[Phe(3-Me)][aThr][Hyp][Morpholine(3S-CO)]A[Pro(4R-Me)]; ester 2-C)" reading=3850
molecule="Cc1cccc(C[C@H](NC(=O)Nc2ccc(Cl)cc2F)C(=O)N[C@@H]2C(=O)N3C[C@H](O)C[C@H]3C(=O)N3CCN(C)C[C@H]3C(=O)N[C@@H](C)C(=O)N3C[C@H](C)C[C@H]3C(=O)O[C@H]2C)c1 [Compound 31] ({NH(4-Cl-2-F-phenyl)-CO}-[Phe(3-Me)][aThr][Hyp][Piperazine(2S-CO,4-Me)]A[Pro(4R-Me)]; ester 2-C)" reading=5250

---

Recorded MIC by entry
Tested on: S. aureus USA 300
Assay: Minimal inhibitory concentration, microbroth dilution
Assay type: cell-based
Settings: Staphylococcus aureus, USA300, read-out: Minimal Inhibitory Concentrations (μM) S. aureus USA 300, MIC
Procedure: Minimal inhibitory concentrations (“MICs”) were determined using the microbroth dilution method according to Clinical Laboratory Standards Institute (CLSI; National, C.F. C. L. S., Methods for Dilution Antimicrobial Susceptibility Tests for Bacteria Grow aerobically-Seventh Edition: Approved Standard M7-A7, CLSI, Wayne, Pa., USA, 2008) and were read by visual inspection. […] After incubations, in all cases the MIC was recorded as the lowest concentration of drug that prevented bacterial growth. […]
Numbered stars: 1 amine (or outer) side, 2 acyl side, 3 side chain; on linkers, the order of the positions; unused ones are H or OH. Bridge positions count the residues as written; N and C are the ends. Square brackets hold non-standard residues; d marks the D form. Peptide text beside a SMILES is read from it. * marks the point of attachment. Piperazine(2S-CO,4-Me) = CN1CCN[C@H](C(=O)O)C1; Phe(3,5-F2) = N[C@@H](Cc1cc(F)cc(F)c1)C(=O)O; NH(1-Me-indolin-5-yl) = CN1CCc2cc(N*)ccc21; Morpholine(3S-CO) = O=C(O)[C@@H]1COCCN1; Phe(3-Me) = Cc1cccc(C[C@H](N)C(=O)O)c1; Pro(4S-Me) = C[C@@H]1CN[C@H](C(=O)O)C1; X4 = O=C1CN([*:1])[C@H](C(=O)[*:2])CN1; Pro(4R-Me) = C[C@H]1CN[C@H](C(=O)O)C1; X1 = O=C([C@@H]1CSCCN1[*:1])[*:2]; Hyp = O=C(O)[C@@H]1C[C@@H](O)CN1; NH(3-Cl-phenyl) = Clc1cccc(N*)c1; NH(4-Cl-phenyl) = Clc1ccc(N*)cc1; NH(4-Me-phenyl) = Cc1ccc(N*)cc1; aThr = C[C@H](O)[C@H](N)C(=O)O; Pip = O=C(O)[C@@H]1CCCCN1; CO = O=C([*:1])[*:2]
measuredParameter: MIC (µM)

compound="Cc1ccc(NC(=O)N[C@@H](Cc2cccc(C)c2)C(=O)N[C@@H]2C(=O)N3C[C@H](O)C[C@H]3C(=O)N3CCCC[C@H]3C(=O)N[C@@H](C)C(=O)N3C[C@H](C)C[C@H]3C(=O)O[C@H]2C)cc1 [Compound 26] ({NH(4-Me-phenyl)-CO}-[Phe(3-Me)][aThr][Hyp][Pip]A[Pro(4R-Me)]; ester 2-C)" measuredparameter=MIC readoutunits=µM qualifiersymbol== reading=2.5
compound=Cc1cccc(C[C@H](NC(=O)Nc2cccc(Cl)c2)C(=O)N[C@H]2COC(=O)[C@@H]3C[C@@H](C)CN3C(=O)[C@H](C)NC(=O)[C@@H]3CCCCN3C(=O)[C@@H]3CCCN3C2=O)c1 measuredparameter=MIC readoutunits=µM qualifiersymbol== reading=2.5
compound=Cc1cccc(C[C@H](NC(=O)Nc2cccc(Cl)c2)C(=O)N[C@H]2COC(=O)[C@@H]3C[C@H](C)CN3C(=O)[C@H](C)NC(=O)[C@@H]3CCCCN3C(=O)[C@@H]3CCCN3C2=O)c1 measuredparameter=MIC readoutunits=µM qualifiersymbol=> reading=20
compound="Cc1cccc(C[C@H](NC(=O)Nc2cccc(Cl)c2)C(=O)N[C@@H]2C(=O)N3CCC[C@H]3C(=O)N3CC(=O)NC[C@H]3C(=O)N[C@@H](C)C(=O)N3C[C@H](C)C[C@H]3C(=O)O[C@H]2C)c1 [Compound 76] ({NH(3-Cl-phenyl)-CO}-[Phe(3-Me)][aThr]P[X4]A[Pro(4R-Me)]; ester 2-C)" measuredparameter=MIC readoutunits=µM qualifiersymbol=> reading=20
compound="Cc1ccc(NC(=O)N[C@@H](Cc2cccc(C)c2)C(=O)N[C@@H]2C(=O)N3C[C@H](O)C[C@H]3C(=O)N3CCSC[C@H]3C(=O)N[C@@H](C)C(=O)N3C[C@H](C)C[C@H]3C(=O)O[C@H]2C)cc1 [Compound 42] ({NH(4-Me-phenyl)-CO}-[Phe(3-Me)][aThr][Hyp][X1]A[Pro(4R-Me)]; ester 2-C)" measuredparameter=MIC readoutunits=µM qualifiersymbol== reading=2.5
compound="Cc1cccc(C[C@H](NC(=O)Nc2cccc(Cl)c2)C(=O)N[C@@H]2C(=O)N3CCC[C@H]3C(=O)N3CCCC[C@H]3C(=O)N[C@@H](C)C(=O)N3C[C@H](C)C[C@H]3C(=O)O[C@H]2C)c1 [Compound 64] ({NH(3-Cl-phenyl)-CO}-[Phe(3-Me)][aThr]P[Pip]A[Pro(4R-Me)]; ester 2-C)" measuredparameter=MIC readoutunits=µM qualifiersymbol== reading=1.25
compound="Cc1ccc(NC(=O)N[C@@H](Cc2cccc(C)c2)C(=O)N[C@H]2COC(=O)[C@@H]3C[C@@H](C)CN3C(=O)[C@H](C)NC(=O)[C@@H]3CN(C)CCN3C(=O)[C@@H]3CCCN3C2=O)cc1 [Compound 15] ({NH(4-Me-phenyl)-CO}-[Phe(3-Me)]SP[Piperazine(2S-CO,4-Me)]A[Pro(4R-Me)]; ester 2-C)" measuredparameter=MIC readoutunits=µM qualifiersymbol== reading=5
compound="Cc1ccc(NC(=O)N[C@@H](Cc2cccc(C)c2)C(=O)N[C@@H]2C(=O)N3C[C@H](O)C[C@H]3C(=O)N3CCN(C)C[C@H]3C(=O)N[C@@H](C)C(=O)N3C[C@H](C)C[C@H]3C(=O)O[C@H]2C)cc1 [Compound 30] ({NH(4-Me-phenyl)-CO}-[Phe(3-Me)][aThr][Hyp][Piperazine(2S-CO,4-Me)]A[Pro(4R-Me)]; ester 2-C)" measuredparameter=MIC readoutunits=µM qualifiersymbol== reading=2.5
compound="Cc1ccc(NC(=O)N[C@@H](Cc2cccc(C)c2)C(=O)N[C@@H]2C(=O)N3CCC[C@H]3C(=O)N3CCCC[C@H]3C(=O)N[C@@H](C)C(=O)N3C[C@@H](C)C[C@H]3C(=O)O[C@H]2C)cc1 [Compound 45] ({NH(4-Me-phenyl)-CO}-[Phe(3-Me)][aThr]P[Pip]A[Pro(4S-Me)]; ester 2-C)" measuredparameter=MIC readoutunits=µM qualifiersymbol== reading=10
compound="C[C@@H]1C[C@H]2C(=O)O[C@@H](C)[C@H](NC(=O)[C@H](Cc3cc(F)cc(F)c3)NC(=O)Nc3ccc4c(c3)CCN4C)C(=O)N3CCC[C@H]3C(=O)N3CCOC[C@H]3C(=O)N[C@@H](C)C(=O)N2C1 [Compound 32] ({NH(1-Me-indolin-5-yl)-CO}-[Phe(3,5-F2)][aThr]P[Morpholine(3S-CO)]A[Pro(4R-Me)]; ester 2-C)" measuredparameter=MIC readoutunits=µM qualifiersymbol== reading=0.156
compound="Cc1cccc(C[C@H](NC(=O)Nc2ccc(Cl)cc2)C(=O)N[C@@H]2C(=O)N3C[C@H](O)C[C@H]3C(=O)N3CCCC[C@H]3C(=O)N[C@@H](C)C(=O)N3C[C@H](C)C[C@H]3C(=O)O[C@H]2C)c1 [Compound 61] ({NH(4-Cl-phenyl)-CO}-[Phe(3-Me)][aThr][Hyp][Pip]A[Pro(4R-Me)]; ester 2-C)" measuredparameter=MIC readoutunits=µM qualifiersymbol== reading=0.156
compound="Cc1ccc(NC(=O)N[C@@H](Cc2cccc(C)c2)C(=O)N[C@@H]2C(=O)N3CCC[C@H]3C(=O)N3CCCC[C@H]3C(=O)N[C@@H](C)C(=O)N3C[C@H](C)C[C@H]3C(=O)O[C@H]2C)cc1 [Compound 1] ({NH(4-Me-phenyl)-CO}-[Phe(3-Me)][aThr]P[Pip]A[Pro(4R-Me)]; ester 2-C)" measuredparameter=MIC readoutunits=µM qualifiersymbol=< reading=0.098
compound="Cc1cccc(C[C@H](NC(=O)Nc2ccc(Cl)cc2)C(=O)N[C@@H]2C(=O)N3C[C@H](O)C[C@H]3C(=O)N3CCCC[C@H]3C(=O)N[C@@H](C)C(=O)N3C[C@@H](C)C[C@H]3C(=O)O[C@H]2C)c1 [Compound 66] ({NH(4-Cl-phenyl)-CO}-[Phe(3-Me)][aThr][Hyp][Pip]A[Pro(4S-Me)]; ester 2-C)" measuredparameter=MIC readoutunits=µM qualifiersymbol== reading=0.313

Each recorded value in this set is attributed to patent US10570179B2.
